Molecular target: CCR-3 (Homo sapiens)
Sequence (P51677 1-355): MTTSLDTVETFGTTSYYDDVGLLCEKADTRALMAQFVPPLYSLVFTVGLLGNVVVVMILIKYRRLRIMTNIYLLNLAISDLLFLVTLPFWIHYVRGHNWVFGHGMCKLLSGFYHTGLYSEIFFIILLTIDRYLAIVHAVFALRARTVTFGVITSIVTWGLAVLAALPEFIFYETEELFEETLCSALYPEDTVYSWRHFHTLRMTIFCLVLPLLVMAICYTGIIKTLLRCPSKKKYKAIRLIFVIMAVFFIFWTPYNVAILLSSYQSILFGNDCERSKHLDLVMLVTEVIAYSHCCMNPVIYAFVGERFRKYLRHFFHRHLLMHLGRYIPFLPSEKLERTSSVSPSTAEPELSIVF
Experiment: Eosinophil chemotaxis assay (eotaxin-induced)
Assay type: cell-based
Parameters: Eosinophils were purified from human peripheral blood; endogenous in cells; host or cells: human peripheral blood eosinophils
Conditions: functional pKi; eosinophils from human peripheral blood; agonist eotaxin; read-out: CCR-3 Eosinophil Chemotaxis Assay (fpKi) (converted)
measure: Ki (nM)

Completed entries (count: 5):
[ask] Requested field: Ki. Item: NC(=O)c1ccc(CNC(=O)NC[C@H]2CN(Cc3ccc(Cl)c(Cl)c3)CCO2)cc1 [Example 54]
[reply] 15.8

[ask] Subsequent entry: COc1ccc(CNC(=O)NCC2CN(Cc3ccc(Cl)c(Cl)c3)CCO2)cc1 (stereo not drawn) [Example 2]
[reply] 49

[ask] Subsequent entry: CNC(=O)c1ccc(CNC(=O)NC[C@H]2CN(Cc3ccc(Cl)c(Cl)c3)CCO2)cc1 [Example 149]
[reply] 15.8

[ask] Subsequent entry: C#CCNC(=O)NC[C@H]1CN(Cc2ccc(Cl)c(Cl)c2)CCO1 [Example 57]
[reply] 9.77

[ask] Subsequent entry: O=C(NCC1CN(Cc2ccc(Cl)c(Cl)c2)CCO1)Nc1cccc(Cl)c1 (stereo not drawn) [Example 13]
[reply] 407

A = Cn1nnc(CNC(=O)NC[C@H]2CN(Cc3ccc(Cl)c(Cl)c3)CCO2)n1 [Example 136]
B = O=C(NCc1cccc(Cl)c1)NCC1CN(Cc2ccc(Cl)c(Cl)c2)CCO1 (stereo not drawn) [Example 48]
C = O=C(NCCc1ccccc1)NCC1CN(Cc2ccc(Cl)c(Cl)c2)CCO1 (stereo not drawn) [Example 8]
[ask] Arrange the 3 molecules from largest to smallest Ki. Put the labels in the requested order and list them out.
[reply] C, B, A

====

biological target: CCR-3 (Homo sapiens, UniProt P51677); assay: CCR-3 competition binding SPA ([125I]eotaxin); parameters: expressed in transfected cells; conditions: inhibition of [125I]eotaxin binding to membranes of K562 cells stably expressing CCR-3; mean of at least two experiments; read-out: CCR-3 Binding Assay (pIC50) (converted)
measure: IC50 (µM)

[ask] Requested field: IC50. Item: O=C(NCC1CN(Cc2ccc(Cl)c(Cl)c2)CCO1)Nc1ccc(SC(F)(F)F)cc1 (stereo not drawn)
[reply] 2

A = NC(=O)c1ccc(CNC(=O)NC[C@H]2CN(Cc3ccc(Cl)c(Cl)c3)CCO2)cc1
B = CCOC(=O)C(c1ccccc1)N1CCOC(CNC(=O)Nc2ccc(Cl)cc2)C1 (stereo not drawn)
[ask] Higher IC50 between A and B ? Respond using the label that marks the chosen record.
[reply] B

====

biological target: CCR-3 (Homo sapiens, UniProt P51677); experiment: CCR-3 competition binding SPA ([125I]eotaxin); set-up: expressed in transfected cells; conditions: inhibition of [125I]eotaxin binding to membranes of K562 cells stably expressing CCR-3; mean of at least two experiments; read-out: CCR-3 Binding Assay (pIC50) (converted)
measure: IC50 (nM)

Completed entries (count: 3):
[ask] Requested field: IC50. Item: O=C(NCC1CN(Cc2ccc(Cl)c(Cl)c2)CCO1)Nc1ccc(OC(F)F)cc1 (stereo not shown) [Example 16]
[reply] 741

[ask] Subsequent entry: O=C(NCC1CN(Cc2ccc(Cl)c(Cl)c2)CCO1)Nc1ccc(Cl)cc1 (stereo not shown) [Example 14]
[reply] 661

[ask] Subsequent entry: Cn1nnc(CNC(=O)NC[C@H]2CN(Cc3ccc(Cl)c(Cl)c3)CCO2)n1 [Example 136]
[reply] 15.8

I = C=Cc1ccc(CN2CCOC(CNC(=O)Nc3ccc(Cl)cc3)C2)cc1 (stereo not shown) [Example 38]
II = N#Cc1cccc(NC(=O)NCC2CN(Cc3ccc(Cl)c(Cl)c3)CCO2)c1 (stereo not shown) [Example 5]
[ask] Kindly compare I with II and tell me which has the lower IC50 figure. Respond using the label that marks the chosen record.
[reply] II

A = CNC(=O)c1ccc(CNC(=O)NC[C@H]2CN(Cc3ccc(Cl)c(Cl)c3)CCO2)cc1 [Example 149]
B = O=C(NCc1ccc(Cl)cc1)NCC1CN(Cc2ccc(Cl)c(Cl)c2)CCO1 (stereo not shown) [Example 47]
[ask] Kindly compare A with B and tell me which has the lower IC50 figure. Respond using the label that marks the chosen record.
[reply] A
(A: 15.8 nM, B: 66.1 nM)
